Readings of LT90 (h; 95% CL) for the listed compounds
System: neonate larvae of H. virescens
assay remarks: Time-response of neonate larvae to NPVs with low concentrations of classical insecticides (droplet feeding, treated vials)
Assay type: in vivo, Heliothis virescens
test context: 2000 PIBs and/or LC10-LC20 (24 h) insecticide
Marks after values point to notes of the source that are not given here.
recorded endpoint: LT90 (h; 95% CL)

>>> value("Clc1ccc(C(c2ccc(Cl)cc2)C(Cl)(Cl)Cl)cc1 [DDT]")
"740 (318-10320) h"
>>> value("CNC(=O)ON=C(C)SC [Methomyl]")
"26563 (2870-1.25 × 10^8) h"
>>> value("O=S1OCC2C(CO1)C1(Cl)C(Cl)=C(Cl)C2(Cl)C1(Cl)Cl (centres unmarked) [Endosulfan]")
"514 (296-1580) h"
>>> value("C=CCC1=C(C)C(OC(=O)C2C(C=C(C)C)C2(C)C)CC1=O (centres unmarked) [Allethrin]")
"1000 (552-2680) h"
>>> value("CC1(C)C(C=C(Cl)Cl)C1C(=O)OC(C#N)c1cccc(Oc2ccccc2)c1 (centres unmarked) [Cypermethrin]")
"902 (436-4190) h"
